Provide the reported pKi of each item.
biological target: Somatostatin receptor type 3 (Homo sapiens, UniProt P32745); assay: Inhibition of [125 I -Tyr]SRIF-14 binding to membranes isolated from CHO-K1 cells expressing cloned human SRIF receptor (sst-3) subtype
Sequence (P32745 whole entry): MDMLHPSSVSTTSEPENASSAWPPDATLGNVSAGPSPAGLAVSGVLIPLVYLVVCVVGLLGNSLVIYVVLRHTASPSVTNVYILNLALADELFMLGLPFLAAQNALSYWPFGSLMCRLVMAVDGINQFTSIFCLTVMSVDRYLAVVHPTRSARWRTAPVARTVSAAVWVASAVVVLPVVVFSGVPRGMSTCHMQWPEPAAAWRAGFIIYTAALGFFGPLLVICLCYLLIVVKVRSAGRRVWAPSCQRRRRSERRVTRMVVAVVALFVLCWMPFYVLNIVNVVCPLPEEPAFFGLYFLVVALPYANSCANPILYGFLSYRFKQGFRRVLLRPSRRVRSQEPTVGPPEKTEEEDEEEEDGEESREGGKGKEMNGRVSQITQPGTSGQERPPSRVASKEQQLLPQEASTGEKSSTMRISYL
# pKi: negative log10 of molar concentration; output just the value

Please fill in: pKi reported for CCCCCC1(CCCCC)NC(c2nc(-c3ccccc3)c[nH]2)Cc2c1[nH]c1ccc(C)cc21 (centres undefined) = 8.16

Item: CCCCC1(CCCC)N[C@@H](c2nc(-c3ccccc3)cs2)Cc2c1[nH]c1ccccc21 | pKi: 5.42

// field: pKi; key: COc1ccc(C2N[C@H](c3nc(-c4ccccc4)c[nH]3)Cc3c2[nH]c2ccccc32)cc1 (some centres undefined) ; value = 7.22

Please fill in: pKi reported for CCCCC1(CCCC)NC(c2nc(-c3ccccc3)c[nH]2)Cc2c1[nH]c1ccc(OCc3ccccc3)cc21 (centres undefined) = 7.77

Sure, the documented pKi for c1ccc(-c2c[nH]c(-c3cc4c([nH]c5ccccc54)c(C4CCCCC4)n3)n2)cc1 is 6.12

Reported pKi of c1ccc(-c2c[nH]c([C@@H]3Cc4c([nH]c5ccccc45)C4(N3)C3CC5CC(C3)CC4C5)n2)cc1 (some centres undefined) : 7.08

# pKi (compound: CCCCC1(CCCC)NC(c2nc(-c3ccccc3)c[nH]2)Cc2c1[nH]c1ccc(Cl)cc21 (centres undefined) ) is 8.47

// CCCCCC1(CCCCC)N[C@H](c2nc(-c3ccccc3)c[nH]2)Cc2c1[nH]c1ccccc21 : pKi value = 9.04

response.value for CCCCC1(CCCC)N[C@H](c2nc(-c3ccccc3)c[nH]2)Cc2c1[nH]c1ccccc21 (field: pKi) = 9.10

Attribution: ChEMBL document CHEMBL1134584
